# measurement.description: qHTS of pediatric cancer cell lines to identify multiple opportunities for drug repurposing: Primary screen for U-2 OS cells (AID 1347096); also: nearly all actives have a fitted effect of over 50% in size
# test.conditions: U-2 OS viability, CellTiter-Glo luminescence, 48 h; series mostly up to 46 µM
Inconclusive results are not listed. Activity calls are given as the source filed them. Calls follow the shape of the dose curve; as a rule, active = well fitted cell-killing curve with a large enough effect; inconclusive = small, poorly fitted or top-dose-only effect; inactive = flat fitted curve, though single readings scatter.
Valid outcomes are listed here; reply with one: active, inactive

Sample answers from the record:
molecule | assigned.class
Oc1c(Br)cc(Br)c2cccnc12 | inactive
Nc1cc(-c2ccncc2)c[nH]c1=O | inactive
COC(=O)C1=C(C)NC(C)=C(C(=O)OCC(C)=O)C1c1ccccc1[N+](=O)[O-] (stereo unspecified) | inactive
CCCC(=O)OC[C@@H](OC(=O)CCC)[C@@H](OC(=O)CCC)[C@H](Cn1c2nc(=O)[nH]c(=O)c-2nc2cc(C)c(C)cc21)OC(=O)CCC | inactive
CCC1C(=O)OCC1Cc1cncn1C (stereo unspecified) | inactive
CC(N)C(=O)OC(C)(C)Cc1ccc(Cl)cc1 (stereo unspecified) | inactive
CCCCCCCCCCCCOCCO | inactive
O=C(OCc1ccccc1)c1ccccc1 | inactive
CCCOC(=O)c1ccc(O)cc1 | inactive
CC(C(=O)O)c1ccc(C(=O)c2ccccc2)s1 (stereo unspecified) | inactive

Qu. So what was the verdict on O=C(CS)Nc1ccccc1 in this test?
Ans. inactive

Qu. So what was the verdict on c1ccc2sc(SSc3nc4ccccc4s3)nc2c1 in this test?
Ans. inactive

Qu. So what was the verdict on c1ccc2sc(SN3CCOCC3)nc2c1 in this test?
Ans. inactive

Qu. So what was the verdict on CN1CCN(c2cc3c(nn2)Oc2ccccc2N3C)CC1 in this test?
Ans. inactive

Qu. So what was the verdict on Cc1ccc(C(=O)c2ccc(CC(=O)O)n2C)cc1 in this test?
Ans. inactive

Qu. So what was the verdict on C/C(=N\O)c1ccc(OCC(=O)N2CCCCC2)cc1 in this test?
Ans. inactive

Qu. So what was the verdict on C#C[C@]1(O)CC[C@H]2[C@@H]3CCc4cc(O)ccc4[C@H]3CC[C@@]21C in this test?
Ans. inactive

Qu. So what was the verdict on [O-][n+]1ccccc1SSc1cccc[n+]1[O-] in this test?
Ans. active

Qu. So what was the verdict on O=C(O)c1cc(O)c(O)c(O)c1 in this test?
Ans. inactive
